- test.system: HIV integrase (Human immunodeficiency virus type 1 group M subtype B, UniProt P12497, F1332H)
- Construct: HIV integrase full length gene (J. Virol., 67, 425-437 (1993)) in which phenylalanine at codon 185 was substituted by histidine
- assay.info: Determination of enzyme (HIV integrase) inhibitory activity
- condition.set: recombinant integrase protein (F185H), donor DNA/target DNA, absorbance at 450 nm
Where a name gives a salt, the structure may show the parent alone.
Label key: yes means IC50 under 6 nM; no means IC50 of 6 nM or more.

Is IC50 strictly under 6 nM for the entry CC(C)[C@@H](CO)n1cc(C(=O)O)c(=O)c2cc(Cc3cccc(Cl)c3F)c(OCCCN)cc21 [Example 4-19, hydrochloride] ? yes

Check if IC50 falls below 6 nM for CC1CN(c2cc3c(cc2Cc2cccc(Cl)c2F)c(=O)c(C(=O)O)cn3[C@H](CO)C(C)C)CC(C)N1 (some centres unmarked) [Example 4-22] . no

Problem: For the molecule CC(=O)NCCOc1cc2c(cc1Cc1cccc(Cl)c1F)c(=O)c(C(=O)O)cn2[C@H](CO)C(C)C [Example 4-41] , is IC50 under 6 nM? yes

Quick check: does CC(C)[C@H]1COc2cc(Cc3cccc(Cl)c3F)cc3c(=O)c(C(=O)O)cn1c23 [Example 5-1] have IC50 under 6 nM? no

Is the reported IC50 for CC(C)[C@@H](CO)n1cc(C(=O)O)c(=O)c2cc(Cc3cccc(Cl)c3F)c(O[C@@H]3CCOC3)cc21 [Example 4-48] strictly below 6 nM? yes

For this molecule, is IC50 lower than 6 nM? CC(C)[C@@H](CO)n1cc(C(=O)O)c(=O)c2cc(Cc3cccc(Cl)c3F)c(NC3CCNCC3)cc21 [Example 4-42] no

Identify whether the molecule COc1cc2c(cc1Cc1ccc(F)c(Cl)c1F)c(=O)c(C(=O)O)cn2[C@H](CO)C(C)C [Example 1-5] records IC50 below 6 nM. yes

Please check: IC50 for CC(=O)N[C@H]1CCN(c2cc3c(cc2Cc2cccc(Cl)c2F)c(=O)c(C(=O)O)cn3[C@H](CO)C(C)C)C1 [Example 4-26] , strictly under 6 nM or not? no

API: query returns whether the molecule falls strictly under 6 nM in IC50. Query: COc1cc2c(cc1Cc1cccc(Cl)c1F)c(=O)c(C(=O)O)cn2[C@H](CO)C(C)(C)S(C)(=O)=O [Example 2-6] yes

Criterion: IC50 strictly below 6 nM. Is it met by CC(C)[C@@H](CO)n1cc(C(=O)O)c(=O)c2cc(Cc3cccc(Cl)c3F)c(OCCNS(C)(=O)=O)cc21 [Example 4-49] ? yes

Could you please tell me whether IC50 recorded for CC(C)[C@@H](CO)n1cc(C(=O)O)c(=O)c2cc(Cc3cccc(Cl)c3F)c(OCCN)cc21 [Example 4-18, hydrochloride] is less than 6 nM? yes

Strictly below 6 nM in IC50? CC(C)[C@@H](CO)n1cc(C(=O)O)c(=O)c2cc(Cc3cccc(Cl)c3F)cc(OCCO)c21 [Example 3-1] yes

Lab note: IC50 threshold 6 nM. Does this molecule come in strictly under it? CC(C)[C@@H](CO)n1cc(C(=O)O)c(=O)c2cc(Cc3cccc(Cl)c3F)c(N3CCN(C)CC3)cc21 [Example 4-10] no
